Taken from PubChem BioAssay (NCI).

# Test system: SN12C renal
# Test Protocol: NCI tumour cell line growth inhibition, 48 h
Measured Property: TGI

* O=C(O)CC1(C(=O)O)CCCCC1 | > 100 µM
* O=C(O)Cc1[nH]cnc1C(=O)O | > 100 µM
* COc1ccc(OC)c2cc(C3(C)SCCCS3)ccc12 | > 100 µM
* Nc1ccc(Oc2ccc(C3(c4ccc(Oc5ccc(N)c(O)c5)cc4)C4CC5C6CC7CC5C3C(C7)C6C4)cc2)cc1O | 3.19 µM
* COc1c(O)cc2c(c1O)C1O[C@H](CO)C(O)[C@H](O)[C@H]1OC2=O (stereo partly specified) | > 100 µM
* CC1=[N+]([O-])C(C)(C)N(O)C1(C)C | > 100 µM

* * *

# System: A498 renal
# Test Protocol: NCI tumour cell line growth inhibition, 48 h
Measured Property: TGI

• COc1ccc(Nc2ccnc(NCCCNc3ccnc4cc(Cl)ccc34)n2)cc1 = 2540 nM
• CCOC(=O)c1c(Cl)c2c(n1Cc1cc(OC)cc(OC)c1)-c1oncc1CCC2 = 605 nM
• COC(=O)C(Cc1c[nH]c2ccccc12)NP(=O)(O)OCC1OC(n2cc(F)c(=O)[nH]c2=O)CC1O (stereo not given) = > 100000 nM
• Cc1cc(C)n(-c2c(O)ccc(O)c2-n2nc(C)cc2C)n1 = > 100000 nM
• NC(=O)c1cc(C2OC(CO)C(O)C2O)nn1-c1ccc([N+](=O)[O-])cc1 (stereo not given) = > 100000 nM

* * *

# Tested on: M14 melanoma
# Test Protocol: NCI tumour cell line growth inhibition, 48 h
Measured Property: TGI

* Cc1ccnc2c1ccc1nc3ccccc3n12 | > 100 µM
* C(/C=N/NC1=NCCCN1)=N\NC1=NCCCN1 | > 100 µM
* CN(C)CCN1C(=O)c2ccccc2C1(O)c1ccc(Cl)cc1 (configuration not stated) | > 100 µM
* CCN(CC)c1ccc2c(c1)N=C1N=CC=CN1C2(c1ccc(N(C)C)cc1)c1ccc(N(C)C)cc1 | 10.5 µM
* COC(=O)/C(C#N)=C(\Nc1ccccc1)N1CCCCC1 | > 100 µM
* Cc1c(CCl)c(=O)oc2c(C)c3occ(CCl)c(=O)c3cc12 | 37.5 µM
* COc1ccc(F)cc1C(=O)c1cnc(NC2CCN(S(C)(=O)=O)CC2)nc1N | > 25 µM
* CCOC(=O)c1cc2ncccc2c2ccccc12 | > 100 µM
* CC[C@H](C)C(=O)O[C@H]1CCC=C2C=C[C@H](C)C(CCC3C[C@@H](O)CC(=O)O3)[C@H]21 (some centres not stated) | > 100 µM
* O=S1(=O)OCCCOS(=O)(=O)C1Br | > 100 µM
* CC(C)C(Cl)CC/C(CBr)=C(\Cl)CCl (configuration not stated) | 4.06 µM
* CN1CCN(Cc2ccc(Nc3ncc(Cl)c(Nc4ccccc4S(=O)(=O)N(C)C)n3)cc2)CC1 | 0.277 µM
* COC(=O)/C(=C/CC(N=C(c1ccccc1)c1ccccc1)C(=O)OC)N=C(c1ccccc1)c1ccccc1 (configuration not stated) | > 100 µM
* CCOC(=O)Oc1cc2c(ccn2C)c2c1c1ccccc1n2C(=O)OCC | > 100 µM
* C=CCN(N=O)C(=O)N(CCC)CCCCC(NC(C)=O)C(=O)NCc1ccccc1 (configuration not stated) | > 100 µM
* O=C1OC2(c3ccc(O)cc3Oc3cc(O)ccc32)c2c1c(-c1ccccc1)c(-c1ccccc1)c(-c1ccccc1)c2-c1ccccc1 | 34.4 µM
* COC(=O)C1=CC2OC1(C)C1(CC1)C2=O (configuration not stated) | 29.1 µM
* O=c1[nH]n(Cc2ccccc2CCl)c2ccc([N+](=O)[O-])cc12 | > 100 µM
* COc1ccc(C(CC(=O)c2ccccc2)C(=O)c2ccc3c(c2)OCO3)cc1 (configuration not stated) | > 100 µM
* O=C(CCCN1CC=C(n2c(=O)[nH]c3ccccc32)CC1)c1cccs1 | > 100 µM
* O=c1[nH]c(=O)n(C2CC(O)C(CO)O2)c2nc3ccc4ccccc4c3nc12 (configuration not stated) | > 100 µM
* O=C(O)Cc1[nH]cnc1C(=O)O | > 100 µM

* * *

# Tested on: HOP-92 NSCLC
# Test Protocol: NCI tumour cell line growth inhibition, 48 h
This section presents compounds with their documented TGI values.
Measured Property: TGI (µM)

* CCN(CC)c1ccc2c(c1)N=C1N=CC=CN1C2(c1ccc(N(C)C)cc1)c1ccc(N(C)C)cc1 | 8.6
* Clc1ccc2nc(CCSCCc3nc4ccc(Cl)cc4[nH]3)[nH]c2c1 | 30.6
* COc1cc2c3c(c4cc(OC)c(OC)cc4c2cc1OC)[C@H](O)[C@@H]1CCCN1C3 | 2.32
* NC(=O)NC(=O)c1ccc(NC(=O)CBr)cc1 | 4.59
* COc1cc2c3c(n(C4CCNCC4)c(=O)c2cc1OC)-c1cc2c(cc1C3=O)OCO2 | 28.3
* C=C1CC(COc2ccc3ccc(=O)oc3c2)(c2ccccc2)OC1=O (stereo not given) | 2.15

* * *

# Tested on: OVCAR-4 ovarian
# Test Protocol: NCI tumour cell line growth inhibition, 48 h
Measured Property: TGI

- COC(=O)C1C(=O)O[C@@H](c2ccc(OC)cc2OC)C1C(=O)OC (some centres not stated): > 100 µM
- O=C(O)CC1(C(=O)O)CCCCC1: > 100 µM
- COc1ccc(CCN(C)C(=O)CC(C#N)(c2ccccc2)c2ccc(OC)c(OC)c2)cc1OC (configuration not stated): > 100 µM
- CCOC(=O)c1cc2ncccc2c2ccccc12: > 100 µM
- CC1OC(O)CC(OC(=O)c2ccccc2)C1OC(=O)c1ccccc1 (configuration not stated): 28.8 µM
- CO[C@H](c1ccccc1)[C@H](O)[C@](O)(c1ccccc1)P(=O)(OC)OC: > 100 µM
- Cc1ccc2sc3c(NCCCNCCO)nc4ccccc4c3c(=O)c2c1: 3.12 µM
- CCOC(=O)c1c(-c2ccccc2)[nH]c2ccc(Cl)cc2c1=O: 44.8 µM
- COc1ccc(C(=O)N2CCN(c3ccc4[nH]c(=O)oc4c3)CC2)cc1: > 100 µM
- O=C1CCSc2c(cnc3ccccc23)N1: > 100 µM
- COc1cnc2c(c1)C(=O)c1c-2n(CCCN2CCN(C)CC2)c(=O)c2cc(Cl)ccc12: 18.1 µM
- COC(=O)[C@]12CSC[C@H]1C[C@H](c1ccc(N(C)C)cc1)N2: > 100 µM
- O=C1/C(=C/c2ccccc2)CCCC/C1=C\c1ccccc1: > 100 µM
- O=C(NN1C(=O)c2ccccc2C1=O)c1ccccc1Nc1ccccc1C(=O)NN1C(=O)c2ccccc2C1=O: > 100 µM
- CCOC(=O)/C(=C\NC(C)(C)C)c1nc2ccccc2o1: > 100 µM
- O=C1c2ccccc2C(=O)c2nc(-c3ccccc3)c(-c3ccccc3)nc21: > 66.9 µM
- Cc1cc(C)n(-c2c(O)ccc(O)c2-n2nc(C)cc2C)n1: > 100 µM
- CN1CCN(Cc2ccc(Nc3ncc(Cl)c(Nc4ccccc4S(=O)(=O)N(C)C)n3)cc2)CC1: 0.649 µM
- C=CC(c1ccccc1)C1(O)c2cccc(O)c2C(=O)c2c(O)cccc21 (configuration not stated): 33.2 µM
- COc1ccc(NC(C)=O)cc1N1C(=O)/C(=C\c2cc(OC)c(OC)c(OC)c2)S(=O)(=O)C1c1ccccc1 (configuration not stated): > 100 µM
- CC1C2=CC=C(O2)C(C)(C)C2=CC=C(O2)C(C)(C)C2=CC=C(O2)C(C)(C)C2=CC=C1O2: > 100 µM
- N=C(N)C1CN(CC=O)C(=O)NC1=O (configuration not stated): > 100 µM

* * *

# System: DLD-1 colon
# Test Protocol: NCI tumour cell line growth inhibition, 48 h
Measured Property: log10 TGI (log10 of the value in µM)

• CCN(CC)c1ccc2c(c1)N=C1N=CC=CN1C2(c1ccc(N(C)C)cc1)c1ccc(N(C)C)cc1 = 1.25
• CCC[CH2][Sn]([CH2]CCC)([S]C1=NCCS1)[S]C1=NCCS1 = 0.12
• CSC(=N)N1N=C2c3ccccc3CC[C@@H]2[C@@H]1c1ccccc1 = 1.50
• COc1ccc(/C(Cl)=C(\C=O)c2ccc(Cl)c(Cl)c2)cc1OC = 1.31
• COc1cc([C@H]2Oc3cc(O)c4c(=O)cc(-c5ccc(O)cc5)oc4c3O[C@@H]2CO)ccc1O = 1.51
• O=C(CC1(O)C(=O)Nc2c(Cl)cc(Cl)cc21)c1ccc2ccccc2c1 (stereo not given) = 1.43

* * *

# Test system: T-47D breast
# Test Protocol: NCI tumour cell line growth inhibition, 48 h
Measured Property: TGI (µM)

* C=CC(c1ccccc1)C1(O)c2cccc(O)c2C(=O)c2c(O)cccc21 (configuration not stated) | 42.3
* CCNc1nc(N2CC(=O)Nc3cc(OC)ccc32)c2ccccc2n1 | 52.9
* C/C(=C\c1c[nH]c2ccccc12)[N+](=O)[O-] | 22.2
* CN1CCN(Cc2ccc(NC(=O)c3cncc(C#Cc4c(N)ncc5cc(F)ccc45)c3)cc2C(F)(F)F)CC1 | 20.2
* Nc1ccn([C@@H]2C=C(CO)[C@@H](O)[C@H]2O)c(=O)n1 | 261
* CNC1C(O)CC(OC2C/C=C(\C)C/C(C)=C/C=C/CCC(C)CNC(=O)/C=C/C=C/C2C)OC1C (configuration not stated) | 3.18
* O=C1OC2(c3ccc(O)cc3Oc3cc(O)ccc32)c2c1c(-c1ccccc1)c(-c1ccccc1)c(-c1ccccc1)c2-c1ccccc1 | 71.4
* COc1ccc(-c2nc(-c3nc4cc(C)c(C)cc4[nH]3)cc3c2[nH]c2ccccc23)cc1 | 7.92
* CC(C)C(Cl)CC/C(CBr)=C(\Cl)CCl (configuration not stated) | 3.29
* COC(=O)C#Cc1ccc([N+](=O)[O-])cc1 | 11.4
